- TARGET OR SYSTEM: Breast cancer resistance protein (BCRP) (Rattus norvegicus)
- Construct: from tissue; host or cells: living rat (blood-brain barrier, choroid plexus)
- Sequence (Q80W57 1-657): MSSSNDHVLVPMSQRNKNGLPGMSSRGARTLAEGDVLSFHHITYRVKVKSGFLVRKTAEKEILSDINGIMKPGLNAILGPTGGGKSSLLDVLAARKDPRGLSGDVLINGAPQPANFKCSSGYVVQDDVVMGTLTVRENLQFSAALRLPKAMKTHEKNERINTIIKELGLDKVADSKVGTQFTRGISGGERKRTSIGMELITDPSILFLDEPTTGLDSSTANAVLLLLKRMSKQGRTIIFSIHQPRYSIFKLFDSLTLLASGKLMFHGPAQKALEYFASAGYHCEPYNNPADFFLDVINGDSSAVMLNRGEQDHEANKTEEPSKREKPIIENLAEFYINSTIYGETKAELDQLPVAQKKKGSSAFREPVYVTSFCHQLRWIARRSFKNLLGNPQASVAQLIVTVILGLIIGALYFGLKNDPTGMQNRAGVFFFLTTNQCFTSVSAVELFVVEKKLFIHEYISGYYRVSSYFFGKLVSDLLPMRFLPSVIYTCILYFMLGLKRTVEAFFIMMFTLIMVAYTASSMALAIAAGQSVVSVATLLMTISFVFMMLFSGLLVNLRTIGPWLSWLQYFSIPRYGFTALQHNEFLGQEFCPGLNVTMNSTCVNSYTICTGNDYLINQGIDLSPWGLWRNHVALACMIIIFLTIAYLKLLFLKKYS
- RUN DESCRIPTION: In vivo microdialysis pharmacokinetics of LVFX with BCRP inhibitor Ko143
- COND: intravenous, with Ko143 15 mg/kg i.p., 30 min before LVFX, blood, Ko143 group, Ko143 15 mg/kg i.p. + LVFX 50 mg/kg, mean ± SD, N=5, read-out: AUC0–180 (converted)
ATTRIBUTE MEASURED: AUC(0-t)

>>> print(df.to_string())
                                     smiles  attribute_measured         result
0  C[C@H]1COc2c(N3CCN(C)CC3)c(F)cc3c(=O)c(C(=O)O)cn1c23            AUC(0-t)  11100 ng·h/mL

* * *

- Test system: P-glycoprotein (P-gp)
- RUN DESCRIPTION: In vivo microdialysis pharmacokinetics of LVFX with P-gp inhibitor Tariquidar
- Set-up: species or system rat
- COND: rat, CSF (lateral ventricle microdialysate, unbound), intravenous, with Tariquidar 8 mg/kg i.p.; CSF; TAR group, Tariquidar 8 mg/kg i.p. + LVFX 50 mg/kg; mean ± SD, N=5; read-out: AUC0–180 (converted)
ATTRIBUTE MEASURED: AUC(0-t) (ng·h/mL)

>>> df
                                   molecule       target_or_system  numeric_value
0  C[C@H]1COc2c(N3CCN(C)CC3)c(F)cc3c(=O)c(C(=O)O)cn1c23 [LVFX, Levofloxacin]  P-glycoprotein (P-gp)           3900

* * *

- Test system: P-glycoprotein (P-gp)
- RUN DESCRIPTION: In vivo microdialysis pharmacokinetics of LVFX with P-gp inhibitor Tariquidar
- Set-up: species or system rat
- COND: rat, brain ECF / blood, intravenous, with Tariquidar 8 mg/kg i.p., 30 min before LVFX; AUCu,ECF/AUCu,blood; TAR group, Tariquidar 8 mg/kg i.p. + LVFX 50 mg/kg; N=5; read-out: K p,uu,ECF
ATTRIBUTE MEASURED: Kp

In [3]: df
Out[3]:
                                     smiles  numeric_value
0  C[C@H]1COc2c(N3CCN(C)CC3)c(F)cc3c(=O)c(C(=O)O)cn1c23          0.368
